Tested on: HEK-293T
Assay: Multiplex assay against HEK293T
Format: toxicity, cell-based
Details: human, 12 h, 10 µM, compound concentration 10 uM, replicate 2
measure: Population Mitochondria Different-Phenotype (%)

Q: Tell me its Population Mitochondria Different-Phenotype (%) given COc1c(Nc2ccc(S(C)(=O)=O)nc2C)ncnc1OC1CCN(C(=O)OC(C)C)CC1 as the entry.
Result: 71%

Q: Tell me its Population Mitochondria Different-Phenotype (%) given COc1ccc2[nH]c(I)c(CCNC(C)=O)c2c1 as the entry.
Result: 62%

Q: Tell me its Population Mitochondria Different-Phenotype (%) given CCC(=O)OCC(=O)[C@@]1(OC(=O)CC)[C@@H](C)C[C@H]2[C@@H]3CCC4=CC(=O)C=C[C@]4(C)[C@@]3(Cl)[C@@H](O)C[C@@]21C [BECLOMETHASONE DIPROPIONATE] as the entry.
Result: 93%

Q: Tell me its Population Mitochondria Different-Phenotype (%) given COc1cc(OC2CCN(C(C)=O)CC2)ccc1C(=O)N1CCC(N2C(=O)OCc3ccccc32)CC1 as the entry.
Result: 77%

Q: Tell me its Population Mitochondria Different-Phenotype (%) given OCCCNc1cc(-c2ccnc(Nc3cccc(Cl)c3)n2)ccn1 as the entry.
Result: 85%

Q: Tell me its Population Mitochondria Different-Phenotype (%) given Cc1sc2c(c1C)C(c1ccc(Cl)cc1)=N[C@H](CC(=O)OC(C)(C)C)c1nnc(C)n1-2 as the entry.
Result: 90%

Q: Tell me its Population Mitochondria Different-Phenotype (%) given O=C(NCCNCC(O)COc1ccc(O)cc1)N1CCOCC1.O=C(NCCNCC(O)COc1ccc(O)cc1)N1CCOCC1.O=C(O)/C=C/C(=O)O (stereo not given) [XAMOTEROL FUMARATE] as the entry.
Result: 62%

Q: Tell me its Population Mitochondria Different-Phenotype (%) given CN1C[C@H](C(=O)N[C@]2(C)O[C@@]3(O)[C@@H]4CCCN4C(=O)[C@H](Cc4ccccc4)N3C2=O)C[C@@H]2c3cccc4[nH]cc(c34)C[C@H]21.CS(=O)(=O)O [DIHYDROERGOTAMINE MESYLATE] as the entry.
Result: 61%

Q: Tell me its Population Mitochondria Different-Phenotype (%) given COCCn1c(C)c(C)s/c1=N\C(=O)C1C(C)(C)C1(C)C as the entry.
Result: 72%

Q: Tell me its Population Mitochondria Different-Phenotype (%) given COC(c1ccccc1)(c1ccccc1)[C@H](Oc1nc(C)cc(C)n1)C(=O)O as the entry.
Result: 57%

Q: Tell me its Population Mitochondria Different-Phenotype (%) given COc1cc2nc(N3CCN(C(=O)COc4c(OC)cccc4C(C)C)CC3)nc(N)c2cc1OC.Cl.Cl as the entry.
Result: 66%

Q: Tell me its Population Mitochondria Different-Phenotype (%) given CC(C)(C)c1ccc(CSc2cnn(C(C)(C)C)c(=O)c2Cl)cc1 as the entry.
Result: 81%

Q: Tell me its Population Mitochondria Different-Phenotype (%) given Cc1cc(NC(=O)NCCN2CCC(O)(Cc3ccccc3)CC2)c2ccccc2n1 as the entry.
Result: 76%

Q: Tell me its Population Mitochondria Different-Phenotype (%) given CCCCC[C@H](O)/C=C/[C@H]1[C@H](O)CC(=O)[C@@H]1CCCCCCC(=O)O as the entry.
Result: 64%

Q: Tell me its Population Mitochondria Different-Phenotype (%) given Cc1ccc(OCC(O)C(C)NC(C)C)c2c1CCC2.Cl (stereo not given) as the entry.
Result: 79%

Q: Tell me its Population Mitochondria Different-Phenotype (%) given CN1CCN2c3ccccc3Cc3ccccc3C2C1.Cl (stereo not given) [MIANSERIN HYDROCHLORIDE] as the entry.
Result: 53%

Q: Tell me its Population Mitochondria Different-Phenotype (%) given COc1cc2nc(N3CCN(C(=O)c4ccco4)CC3)nc(N)c2cc1OC.Cl [PRAZOSIN HYDROCHLORIDE] as the entry.
Result: 61%

Q: Tell me its Population Mitochondria Different-Phenotype (%) given COCCCN1CCC(NC(=O)c2cc(Cl)c(N)c3c2OCC3)CC1 [PRUCALOPRIDE] as the entry.
Result: 75%

Q: Tell me its Population Mitochondria Different-Phenotype (%) given CN1CCN(c2ccc(Nc3c4ccccc4nc4ccccc34)cc2)CC1.Cl.Cl.O as the entry.
Result: 100%

Q: Tell me its Population Mitochondria Different-Phenotype (%) given CN(C)C(=O)Cn1cc(-c2ccc(-c3nnc4ccccn34)cc2)cn1 as the entry.
Result: 55%

====

I'd be grateful if you could share measured Total Cell Count for these entries.
Test system: U2OS
Assay: Multiplex assay against U2OS
Type: toxicity, cell-based
Settings: human, 48 h, 10 µM, compound concentration 10 uM, replicate 1
Reply with the value as a number alone.

Q: Tell me its Total Cell Count given O=C(NCCNCC(O)COc1ccc(O)cc1)N1CCOCC1.O=C(NCCNCC(O)COc1ccc(O)cc1)N1CCOCC1.O=C(O)/C=C/C(=O)O (stereo not drawn) [XAMOTEROL FUMARATE] as the entry.
Result: 392

Q: Tell me its Total Cell Count given COc1c(Nc2ccc(S(C)(=O)=O)nc2C)ncnc1OC1CCN(C(=O)OC(C)C)CC1 as the entry.
Result: 356

Q: Tell me its Total Cell Count given O=c1ccc2ccc(OCCCCN3CCN(c4cccc5sccc45)CC3)cc2[nH]1 as the entry.
Result: 215

Q: Tell me its Total Cell Count given Cc1cc(=O)n(C)c2cc(N3C(=O)CC[C@H](NS(=O)(=O)CC(C)C)[C@H]3c3ccc(Cl)cc3)ccc12 as the entry.
Result: 331

Q: Tell me its Total Cell Count given CCCCC[C@H](O)/C=C/[C@H]1[C@H](O)CC(=O)[C@@H]1CCCCCCC(=O)O as the entry.
Result: 362

Q: Tell me its Total Cell Count given Cc1sc2c(c1C)C(c1ccc(Cl)cc1)=N[C@H](CC(=O)OC(C)(C)C)c1nnc(C)n1-2 as the entry.
Result: 342

Q: Tell me its Total Cell Count given CN(C)C(=O)Cn1cc(-c2ccc(-c3nnc4ccccn34)cc2)cn1 as the entry.
Result: 418

Q: Tell me its Total Cell Count given CC(C)(O)C(=O)N1CCN(c2ccc(C(F)(F)F)c(C3=C(c4c[nH]c5ccccc45)C(=O)NC3=O)c2)CC1 as the entry.
Result: 177

====

System: U2OS
Experiment: Multiplex assay against U2OS
Assay type: toxicity, cell-based
Settings: human, 24 h, 1 µM, compound concentration 1 uM, replicate 2
measure: Population Pyknosed Nuclei (%)
Units required after the number.

Q: Lab note: U2OS assay, enter Population Pyknosed Nuclei (%) for CC(C)(O)C(=O)N1CCN(c2ccc(C(F)(F)F)c(C3=C(c4c[nH]c5ccccc45)C(=O)NC3=O)c2)CC1 here
Result: 9%

Q: Lab note: U2OS assay, enter Population Pyknosed Nuclei (%) for CCC(=O)OCC(=O)[C@@]1(OC(=O)CC)[C@@H](C)C[C@H]2[C@@H]3CCC4=CC(=O)C=C[C@]4(C)[C@@]3(Cl)[C@@H](O)C[C@@]21C [BECLOMETHASONE DIPROPIONATE] here
Result: 13%

Q: Lab note: U2OS assay, enter Population Pyknosed Nuclei (%) for O=C(Nc1cc(-c2ccccc2)nn1-c1ccccc1F)c1ccc([N+](=O)[O-])cc1 here
Result: 8%

Q: Lab note: U2OS assay, enter Population Pyknosed Nuclei (%) for CC(C)C[C@H](CO)Nc1nc(S[C@@H](C)c2ccccc2)nc2nc(N)sc12 here
Result: 4%

Q: Lab note: U2OS assay, enter Population Pyknosed Nuclei (%) for CN1CCN2c3ccccc3Cc3ccccc3C2C1.Cl (stereo not drawn) [MIANSERIN HYDROCHLORIDE] here
Result: 5%

Q: Lab note: U2OS assay, enter Population Pyknosed Nuclei (%) for OCCCNc1cc(-c2ccnc(Nc3cccc(Cl)c3)n2)ccn1 here
Result: 25%

Q: Lab note: U2OS assay, enter Population Pyknosed Nuclei (%) for Cc1cc(NC(=O)NCCN2CCC(O)(Cc3ccccc3)CC2)c2ccccc2n1 here
Result: 8%

Q: Lab note: U2OS assay, enter Population Pyknosed Nuclei (%) for COc1cc2nc(N3CCN(C(=O)c4ccco4)CC3)nc(N)c2cc1OC.Cl [PRAZOSIN HYDROCHLORIDE] here
Result: 10%

Attribution: ChEMBL document CHEMBL5058577
